System: VZV strain Ellen
Test: VZV Antiviral (ELISA) assay
Format: cell-based
Conditions: VZV strain Ellen in HFF cells
experimental-readout: IC50 (ug/ml) VZV (µg/mL)
Respond numerically; units are µg/mL and should not be typed.

Give IC50 (ug/ml) VZV for O=C(Nc1ccc(NC(=S)NCc2cc(F)cc(F)c2)cc1)c1ccco1 [Example 579] tested on VZV strain Ellen.
6

Give IC50 (ug/ml) VZV for CC(NC(=S)Nc1ccc(NC(=O)c2cscn2)cc1)c1cccc(F)c1 (centres unmarked) [Example 842] tested on VZV strain Ellen.
1.55

Give IC50 (ug/ml) VZV for CN(C)c1ccc(Cl)cc1NC(=S)Nc1ccc(NC(=O)c2ccco2)cc1 [Example 489] tested on VZV strain Ellen.
3.5

Give IC50 (ug/ml) VZV for CCCN(CCC)CC(=O)Nc1ccc(NC(=S)Nc2ccc(NC(=O)c3ccco3)cc2)cc1Cl [Example 411] tested on VZV strain Ellen.
2

Give IC50 (ug/ml) VZV for Nc1c(Cl)cc(C(F)(F)F)cc1NC(=S)Nc1ccc(NC(=O)c2ccco2)cc1 [Example 530] tested on VZV strain Ellen.
6

Values compiled from patent US6426355B1.
